Test system: MALME-3M melanoma
Test: NCI tumour cell line growth inhibition, 48 h
The entries below come with measured GI50 values attached.
Attribute measured: GI50

compound=CCCCCCNC(=O)c1cc(NCc2cc(O)ccc2O)ccc1O reported_value="2.74 µM"
compound=CN(C)CCCNC(=O)c1cc2[nH]c3c(cnc4ccc([N+](=O)[O-])cc43)c(=O)c2n1C reported_value="21.3 µM"
compound=C=CCCCCC/C=C\[C@H](O)C#CC#C/C=C/CO reported_value="54 µM"
compound=CN1CCN(CCOc2ccc(-c3cnc4c(-c5ccccc5F)cnn4c3)cc2)CC1 reported_value="1.56 µM"
compound=COc1ccc(/C=C(/C(=O)N2CCN(c3ccccc3)CC2)c2cc(OC)c(OC)c(OC)c2)cc1O reported_value="24.7 µM"
compound="CCN1CCN(C(c2ccc(C(F)(F)F)cc2)c2ccc3cccnc3c2O)CC1 (stereo not given)" reported_value="3.72 µM"
compound="C=C1CC[C@@H]2[C@](C)(COC(C)=O)[C@H](OC(C)=O)CC[C@@]2(C)[C@@H]1CC(Sc1ccccc1)C1=CCOC1=O (stereo not given in full)" reported_value="1.74 µM"
compound=O=C1NC(=O)C(c2cnc3ccccn23)=C1c1cn2c3c(cc(F)cc13)CN(C(=O)N1CCCCC1)CC2 reported_value="30.7 µM"
compound=O=c1c2sc(=S)n(-c3ccc(F)cc3)c2ncn1Cc1ccc(F)cc1F reported_value="> 100 µM"
compound=COc1ccc(CN2C(=O)/C(=C\C(=O)c3ccc(OCCN4CCCCC4)cc3)c3ccccc32)cc1 reported_value="1.82 µM"

---

Test system: LOX IMVI melanoma
Experiment: NCI tumour cell line growth inhibition, 48 h
Attribute measured: TGI

molecule="CCOC(=O)C1(C#N)C(c2ccccc2)CC(O)(c2ccc(OC)cc2)C(C(=O)c2ccc(OC)cc2)C1c1ccccc1 (stereo not given)" tested_target="LOX IMVI melanoma" reported_value="> 100 µM"
molecule="COc1ccc(C2C(Cl)C(=O)N2n2cnc3ccccc3c2=O)cc1 (stereo not given)" tested_target="LOX IMVI melanoma" reported_value="> 100 µM"
molecule=COc1ccccc1/C(=N\OCCC(=O)O)c1cccs1 tested_target="LOX IMVI melanoma" reported_value="> 100 µM"
molecule=CC1(C)COC(c2cccnc2/C=N/O)=N1 tested_target="LOX IMVI melanoma" reported_value="> 100 µM"
molecule=Nc1ncnc2c1ccn2C/C=C\CO tested_target="LOX IMVI melanoma" reported_value="> 100 µM"
molecule="CC(O)CCC(=O)c1ccoc1 (stereo not given)" tested_target="LOX IMVI melanoma" reported_value="> 10000 µM"
molecule="O=C(OC(CNc1cc(=O)n(Cc2ccccc2)c(=O)n1Cc1ccccc1)CN1CCCC1)c1ccccc1 (stereo not given)" tested_target="LOX IMVI melanoma" reported_value="> 100 µM"
molecule="CN(Cc1cnc2nc(N)nc(N)c2n1)c1ccc(C(=O)NC(CCC(=O)NCCC(P(=O)(O)O)P(=O)(O)O)C(=O)O)cc1 (stereo not given)" tested_target="LOX IMVI melanoma" reported_value="> 100 µM"
molecule=COc1cc(N(CCC#N)CCC#N)ccc1/C(N=Nc1ccc([N+](=O)[O-])cc1)=N/NC(=O)c1cc(Br)ccc1O tested_target="LOX IMVI melanoma" reported_value="110 µg/mL"
molecule=Cc1cc(C)nc(NC(=O)c2ccc(Br)s2)c1 tested_target="LOX IMVI melanoma" reported_value="> 100 µM"
molecule=CN1CCN(C(=O)CCNC(=O)Cc2ccc(C(=O)c3ccccc3)cc2)CC1 tested_target="LOX IMVI melanoma" reported_value="> 100 µM"
molecule=CN(C)N=Nc1ccc(NC=O)cc1 tested_target="LOX IMVI melanoma" reported_value="> 100 µM"
molecule=Cc1cc(C)n2nc3nc(N)c(C#N)c(-c4ccccc4)c3c2n1 tested_target="LOX IMVI melanoma" reported_value="> 100 µM"
molecule="CCCCCCCCCC1(N=[N+]=[N-])C(=O)c2ccccc2N(C)C1=O (stereo not given)" tested_target="LOX IMVI melanoma" reported_value="34.3 µM"
molecule="CCC[CH2][Sn]1([CH2]CCC)[O]N=C(c2ccccc2)C(c2ccccc2)[O]1 (stereo not given)" tested_target="LOX IMVI melanoma" reported_value="2.86 µM"
molecule=CCOC(=O)c1c(NC(=O)c2cccs2)sc2c1CCCC2 tested_target="LOX IMVI melanoma" reported_value="> 100 µM"
molecule="COC1(OC)CC2C(=O)N(Cc3ccccc3)C1C(S(=O)(=O)c1ccccc1)C2S(=O)(=O)c1ccccc1 (stereo not given)" tested_target="LOX IMVI melanoma" reported_value="21.8 µM"
molecule=CNC(=O)N(C)N=NCCCl tested_target="LOX IMVI melanoma" reported_value="> 100 µM"
molecule="OCC1OC(c2cccc3cc(O)c(O)cc23)CC1O (stereo not given)" tested_target="LOX IMVI melanoma" reported_value="> 100 µM"
molecule=Cc1nn(-c2ccccc2)c2nc(N3CCOCC3)nnc12 tested_target="LOX IMVI melanoma" reported_value="> 100 µM"
molecule="CNC(C#N)c1ccc(OC)cc1 (stereo not given)" tested_target="LOX IMVI melanoma" reported_value="> 100 µM"
molecule=COC(=O)c1cc2c(s1)C(=O)c1ccccc1-2 tested_target="LOX IMVI melanoma" reported_value="> 100 µM"
molecule=COc1cc2cc3c4c(cc(OC)c(OC)c4c2cc1OC)CCN3C(=O)OCCN1CCNCC1 tested_target="LOX IMVI melanoma" reported_value="26.6 µM"
molecule="CCC(C)n1ncn(-c2ccc(N3CCN(c4ccc(OCC5COC(Cn6cncn6)(c6ccc(Cl)cc6Cl)O5)cc4)CC3)cc2)c1=O (stereo not given)" tested_target="LOX IMVI melanoma" reported_value="> 100 µM"
molecule=CS(=O)(=O)O[C@H]1CN2C[C@@H](O)[C@@H](O)[C@H]2[C@H]1CO tested_target="LOX IMVI melanoma" reported_value="> 100 µM"
